Reference for the values: PubChem BioAssay AID2060901

Test system: 422866-222-R5-J1-PDC complex spheroids viability;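 note: spheroids exposed to compounds for 7 days; 100% = DMSO vehicle control viability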
Protocol Summary: Anticancer human tumor 422866-222-R5-J1-PDC patient-derived pancreatic adenocarcinoma cell line growth inhibition [RAS]
Recorded Conditions: second compound 0.1 µM; first compound 0.1 µM; active compounds read low
Kindly state viability, T/C for each of the entries shown.
Note: unit % is implicit; provide only the numeric part.

## Task Give viability, T/C for O=C(c1ccc(F)c(F)c1Nc1ccc(I)cc1F)N1CC(O)([C@@H]2CCCCN2)C1 + C#Cc1c(F)ccc2cc(O)cc(-c3ncc4c(N5CC6CCC(C5)N6)nc(OCC56CCCN5CC(F)C6)nc4c3F)c12 tested on 422866-222-R5-J1-PDC complex spheroids viability.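 Note: spheroids exposed to compounds for 7 days; 100% = DMSO vehicle control viability.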
## Result 53.6

## Task State, for 422866-222-R5-J1-PDC complex spheroids viability, measured viability, T/C of the compound listed here: C[C@@H](NC(=O)c1ncnc(N)c1Cl)c1ncc(C(=O)Nc2cc(C(F)(F)F)c(Cl)cn2)s1 + C=CC(=O)N1CCN(c2nc(OCC3CCCN3C)nc3c(F)c(-c4nc(N)cc(C)c4C(F)(F)F)c(Cl)cc23)C(C)C1
## Result 25

## Task Using 422866-222-R5-J1-PDC complex spheroids viability as the test system, report measured viability, T/C of C[C@@H](NC(=O)c1ncnc(N)c1Cl)c1ncc(C(=O)Nc2cc(C(F)(F)F)c(Cl)cn2)s1 + C#Cc1c(F)ccc2cc(O)cc(-c3ncc4c(N5CC6CCC(C5)N6)nc(OCC56CCCN5CC(F)C6)nc4c3F)c12 .
## Result 88.3

## Task Give the observed viability, T/C of CC(C)n1nc(-c2ccc3oc(N)nc3c2)c2c(N)ncnc21 + C#Cc1c(F)ccc2cc(O)cc(-c3ncc4c(N5CC6CCC(C5)N6)nc(OCC56CCCN5CC(F)C6)nc4c3F)c12 for 422866-222-R5-J1-PDC complex spheroids viability.
## Result 56.8

## Task // output viability, T/C; input CCC(CC)c1cc(NC2CCC(N)C2)n2nccc2n1 (stereo not drawn) + C#Cc1c(F)ccc2cc(O)cc(-c3ncc4c(N5CC6CCC(C5)N6)nc(OCC56CCCN5CC(F)C6)nc4c3F)c12 ; system 422866-222-R5-J1-PDC complex spheroids viability;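 note: spheroids exposed to compounds for 7 days; 100% = DMSO vehicle control viability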
## Result 125

## Task Provide measured viability, T/C on 422866-222-R5-J1-PDC complex spheroids viability for CC(C)NCC(C(=O)N1CCN(c2ncnc3c2C(C)CC3O)CC1)c1ccc(Cl)cc1 (stereo not drawn) + C#Cc1c(F)ccc2cc(O)cc(-c3ncc4c(N5CC6CCC(C5)N6)nc(OCC56CCCN5CC(F)C6)nc4c3F)c12 please.
## Result 64.4

## Task Enter viability, T/C (test system 422866-222-R5-J1-PDC complex spheroids viability) for C=CC(=O)N1CCN(c2nc(OCC3CCCN3C)nc3c(F)c(-c4nc(N)cc(C)c4C(F)(F)F)c(Cl)cc23)C(C)C1 (stereo not drawn) + C#Cc1c(F)ccc2cc(O)cc(-c3ncc4c(N5CC6CCC(C5)N6)nc(OCC56CCCN5CC(F)C6)nc4c3F)c12;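 note: spheroids exposed to compounds for 7 days; 100% = DMSO vehicle control viability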
## Result 18.6

## Task Lab note: 422866-222-R5-J1-PDC complex spheroids viability assay, enter viability, T/C for CC1(O)CCCC1n1c(=O)c(C(F)F)cc2cnc(NC3CCN(S(C)(=O)=O)CC3)nc21 (stereo not drawn) + C#Cc1c(F)ccc2cc(O)cc(-c3ncc4c(N5CC6CCC(C5)N6)nc(OCC56CCCN5CC(F)C6)nc4c3F)c12 here
## Result 69.9
